This collection of values is drawn from patent US20250011363A1.

# tgt: acetylcholine receptor
# assay remarks: SPR, AchR immobilized on CM5 chip, peptide 10 uM
readout kind: Binding affinity (RU)

// worked examples, Binding affinity (RU) included
> print(dat)
                binder  experimental.result
1  RKETFR [6mer-1-761]                   33
2  RKDNEK [6mer-1-757]                   26

(A) RKAKMK [6mer-1-756]
(B) RKQQQR [6mer-1-341]
Query: // pick larger Binding affinity (RU) from pair: A vs B Lab note: record the label of whichever item you select.
Reply: B
(B: 128 RU, A: 33 RU)
